Sourced from patent US8163779B2

Target: glucokinase (GK) (Homo sapiens)
Construct: I.D. No. 1 corresponds to residues 12-465 of glucokinase
Sequence (P35557 with tags, fused parts or gaps isoform P35557-2): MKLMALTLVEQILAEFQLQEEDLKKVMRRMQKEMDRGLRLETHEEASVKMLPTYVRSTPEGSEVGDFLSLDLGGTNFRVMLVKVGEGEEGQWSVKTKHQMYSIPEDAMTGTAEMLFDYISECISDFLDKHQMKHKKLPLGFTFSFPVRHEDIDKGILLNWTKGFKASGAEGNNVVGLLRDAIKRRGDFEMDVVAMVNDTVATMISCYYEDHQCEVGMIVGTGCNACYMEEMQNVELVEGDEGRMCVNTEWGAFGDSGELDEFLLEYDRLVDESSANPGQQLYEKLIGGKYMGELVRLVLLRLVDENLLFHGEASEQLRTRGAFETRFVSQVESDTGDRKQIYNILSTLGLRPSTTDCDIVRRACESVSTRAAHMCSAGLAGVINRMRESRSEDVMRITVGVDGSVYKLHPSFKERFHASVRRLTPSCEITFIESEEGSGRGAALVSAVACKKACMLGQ
Assay: enzymatic glucokinase activity assay (ATP consumption, KinaseGlo luminescence)
Conditions: recombinant GK residues 12-465; 5 μM ATP, 5 mM Glucose; Kact = concentration that displays 50% of the maximal increase in GK activity; read-out: pKact
pEC50: −log10 of the molar value.
List of pEC50 values.
resultType: pEC50

> print(dat)
                                   compound  valuereported
1  Cc1cc(-c2ccccc2Cl)cc(=O)n1[C@@H](CC1CCCCC1)C(=O)Nc1nccs1         < 4.80
2  Cc1csc(-c2cc(C)n([C@@H](CC3CCCCC3)C(=O)Nc3nccs3)c(=O)c2)c1         < 4.80
3  Cc1cc(S(=O)(=O)C2CCS(=O)(=O)CC2)cc(=O)n1[C@@H](CC1CCCCC1)C(=O)Nc1ncc(Cl)s1   4.80 to 5.80
4  Cc1cc(S(=O)(=O)C2CCS(=O)(=O)CC2)cc(=O)n1C(CC1CCCCC1)C(=O)Nc1ncc(Cl)s1 (stereo not shown)   4.80 to 5.80
5  Cc1occc1S(=O)(=O)c1cc(C)n([C@@H](CC2CCOCC2)C(=O)Nc2ncc(Cl)s2)c(=O)c1   4.80 to 5.80
6  Cc1cc(S(=O)(=O)C2CCCC2)cc(=O)n1C(CCC(C)C)C(=O)Nc1nccs1 (stereo not shown)   4.80 to 5.80
7  Cc1cc(S(=O)(=O)C2CC2)cc(=O)n1[C@@H](CC1CCOCC1)C(=O)Nc1ncc(Cl)s1         > 5.80
